- assay.remarks: E. coli acrAB mutant growth effects, primary screen, E. coli filamentation inducers, strain DRC39, OD650, 24 h (AID 1178);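 further: growth measured as culture turbidity by optical density at 650 nm; test concentration not given here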
- particulars: higher = more signal, called active from +8 up or from −8 down
The entries below come with measured z-score values attached.

{"molecule": "CC(C)=CCN(C(=O)C#Cc1ccccc1)[C@H](CO)c1ccccc1", "z-score": 0.163}
{"molecule": "CCOC(=O)C[C@H]1[C@H](OC(=O)c2ccc(-c3ccccc3)cc2)[C@@H](NC(=O)CC(C)C)c2cc(OCCCO)ccc2N1C(=O)Cc1ccc(OC)cc1", "z-score": -0.181}
{"molecule": "C=CC[C@@]1(C(=O)N(C)C)N=C(c2ccc(OCCCO)cc2)O[C@@H]1c1ccccc1", "z-score": -0.936}
{"molecule": "COCCOC(=O)N1C(=O)[C@@]2(c3cc(C#CCCO)ccc31)[C@H](c1ccccc1OCCO)N1[C@H](c3ccccc3)[C@H](c3ccccc3)OC(=O)[C@H]1[C@@H]2C(=O)N1CCc2cc(OC)c(OC)cc2C1", "z-score": 0.0965}
{"molecule": "CC(C)CNC(=O)[C@@H]1c2ccccc2C(=O)N(Cc2ccccc2Cl)[C@H]1c1ccc(CO)cc1", "z-score": 0.219}
{"molecule": "O=C1O[C@@H](c2ccccc2)[C@@H](c2ccccc2)N2[C@@H](c3ccc(O)cc3)[C@]3(C(=O)Nc4ccc(C#CC5=CCCCC5)cc43)[C@@H](C(=O)N3CCCCCCC3)[C@H]12", "z-score": 0.326}
{"molecule": "CC=CC(O)C1C=CC2C(=O)N(C)C(=O)C2N1NC(=O)OC(C)(C)C (configuration not stated)", "z-score": -0.447}
